test system: SK-MEL-28 melanoma; assay: NCI-60 one-dose screen, 48 h; settings: 10 µM unless noted
Compounds without any hit were thinned out: in the full panel of roughly 83,000, 20% have a hit. Calls of active or inactive are those of the source. Rule for the calls: active = growth percent below 10; inactive = the rest.
Hi there, use one of these labels in your reply, thanks! active, inactive

{"Compound": "CCn1cc2c(cc1=O)-c1nc3ccccc3c3ccnc(c13)C2=O", "Classification": "inactive"}
{"Compound": "CCN(CC)C12CCCCC1(C)C(C#N)(C#N)C(C#N)=C(N)O2 (stereo not given)", "Classification": "inactive"}
{"Compound": "CS(=O)(CCCCN=C=S)=NC(=O)c1c(F)c(F)c(F)c(F)c1F (stereo not given)", "Classification": "inactive"}
{"Compound": "COc1cc2c(=O)n(CC3CCCCC3)c3c4cc[nH]c4ncc3c2cc1OC", "Classification": "inactive"}
{"Compound": "O=C1CCc2c(sc3[nH]c(=S)n(Cc4ccccc4)c(=O)c23)C1", "Classification": "inactive"}

Hey, what did the test say about COc1ccc(C2Nc3ccccc3-n3cccc32)cc1 (stereo not given) ?
inactive

Hey, what did the test say about O=C1Nc2ccccc2C12CC(c1ccccc1)=NN2 (stereo not given) ?
inactive

Hey, what did the test say about `COc1cccc(-c2nc3sccn3c2-c2ccnc(NCCCNS(=O)(=O)c3ccc(Cl)cc3)c2)c1` ?
inactive

====

As shown below, each of these molecules has a reported growth value.
test system: LOX IMVI melanoma; assay: NCI-60 one-dose screen, 48 h (100 = growth as untreated, 0 = no growth, -100 = all killed); details: 10 µM unless noted
About 83,000 compounds went through this panel and 20% of them were active in at least one assay; those are over-represented in the sample as a whole. Calls of active or inactive are those of the source. The calls were made as follows: active = growth percent below 10; inactive = the rest.

Solved entries (count: 10):
{"Molecule": "C[C@@H]1CC[C@@H]2[C@@H]1[C@H](OC(=O)/C=C/c1ccccc1)[C@]1(c3ccccc3)C[C@@H](OC(=O)CO)[C@@]2(C)O1", "growth": "97.8% (inactive)"}
{"Molecule": "COc1cnc2c(c1)C(=O)c1c-2n(CCCN2CCCC2)c(=O)c2cc([N+](=O)[O-])ccc12", "growth": "-82.3% (active)"}
{"Molecule": "COc1ccc(-c2cnoc2-c2cc(OC)c3c(c2)OCCO3)cc1", "growth": "17.4% (inactive)"}
{"Molecule": "COc1ccc(-c2nn(-c3ccccc3)cc2/C=C/C(=O)OCc2cn(-c3ccc(F)c(Cl)c3)nn2)cc1", "growth": "78.9% (inactive)"}
{"Molecule": "Cc1noc(C)c1-c1cc(O)cc(C(O)c2ccccc2)c1 (stereo not drawn)", "growth": "27.3% (inactive)"}
{"Molecule": "COc1ccc2nc3cc(Cl)ccc3c(N3CCN(c4nccc(Nc5ccc(Cl)cc5)n4)CC3)c2c1", "growth": "61.9% (inactive)"}
{"Molecule": "OCCNCCNc1c2ccccc2nc2ccccc12", "growth": "37.8% (inactive)"}
{"Molecule": "O=C1C=CC(=O)c2c1nc1n2CCCC1", "growth": "48.8% (inactive)"}
{"Molecule": "N#Cc1ccc(NC(=O)Nc2ccc(Cc3ccc(NC(=O)Nc4ccc(C#N)cc4)cc3)cc2)cc1", "growth": "-67.6% (active)"}
{"Molecule": "CCC(C)[C@@H]1NC(=O)[C@@H]2CCCN2C(=O)[C@H](Cc2ccccc2)NC(=O)[C@@H]2CCCN2C(=O)[C@H](Cc2ccccc2)NC(=O)[C@@H]2CCCN2C(=O)[C@H](Cc2ccccc2)NC1=O (stereo partly drawn)", "growth": "103% (inactive)"}

Field request: growth | item: `COc1ccc2nc3cc(Cl)ccc3c(N3CCN(c4nccc(NCc5ccccc5)n4)CC3)c2c1`
31.3% (inactive)

Field request: growth | item: Cn1c(=O)c2[nH]c(C(O)C(O)C(O)C(O)CO)nc2n(C)c1=O (stereo not drawn)
102% (inactive)

Field request: growth | item: CSc1ncnc2c1ncn2C1CCCO1 (stereo not drawn)
102% (inactive)

Field request: growth | item: `O=C(/C=C/c1cccc(Br)c1)c1ccccc1`
78.2% (inactive)

Field request: growth | item: `O=C1/C(=C/c2ccc(Cl)cc2Cl)CN(S(=O)(=O)c2ccccc2)C/C1=C\c1ccc(Cl)cc1Cl`
-58.7% (active)

Field request: growth | item: `O=C(O)c1c([N+](=O)[O-])cnc2ccccc12`
97.6% (inactive)
